Just for reference, PubChem BioAssay AID1159580 is where these values come from.

experiment: chemical genetic growth profiling, strain panel (AID 1159580);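 also: tested at 20 µM; growth read once vehicle control cultures reached saturation at 30 °C; 1 = growth at the plate median or of vehicle wells; lower values mean less growth of the strain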
experimental.conditions: S. cerevisiae deletion strains, growth OD, locus YDR137W, strain rgp1, hits give low values
Hit rate of the full screen: of about 5,500 compounds, about 2,000 (36%) were called active. Roughly 18% stayed inconclusive and do not appear here. The list shows a part of the results.
assay.readout: normalized growth

{"columns": ["molecule", "assay.readout", "result"],
 "data": [
  ["COc1cc2ccc(=O)oc2c(OC)c1OC", "normalized growth", "0.997 (inactive)"],
  ["COc1cc(OC)c(C(C)=O)c(O)c1C", "normalized growth", "0.859 (inactive)"],
  ["COc1ccc2ccc(=O)oc2c1CC=C(C)C", "normalized growth", "0.715 (active)"],
  ["CCCCCN=C(N)N/N=C\\c1c[nH]c2ccc(OC)cc12", "normalized growth", "1.07 (inactive)"]
]}

Working through the 7 molecules below one at a time, give normalized growth for each.
1. C[N+]1(C)C2CC[C@H]1CC(OC(=O)C(O)c1ccccc1)C2 (stereo partly drawn)
2. FC(F)(F)COCC(F)(F)F
3. CNC(=O)CSP(=S)(OC)OC
4. CC(C)=CCOc1c2occc2cc2ccc(=O)oc12
5. O=c1ccc2cc(O[C@@H]3O[C@H](CO)[C@@H](O)[C@H](O)[C@H]3O)c(O)cc2o1
6. CC(C)=CCC/C(C)=C/COc1ccc2ccc(=O)oc2c1
7. COc1ccc2[nH]cc(CCNC(C)=O)c2c1

Result:
0.992 (inactive)
1.03 (inactive)
1.03 (inactive)
0.729 (active)
1 (inactive)
0.893 (inactive)
0.992 (inactive)

Working through the 2 molecules below one at a time, give normalized growth for each.
1. COc1cc(O)c(C)c(O)c1
2. COc1cc(O)c(C(C)=O)c(OC)c1

Result:
1. 1.05 (inactive)
2. 1.03 (inactive)

====

experiment: chemical genetic growth profiling, strain panel (AID 1159580)
experimental.conditions: S. cerevisiae deletion strains, growth OD, locus YMR231W, strain pep5
In all, about 5,500 compounds went through this assay and about 2,000 (36%) were called active. Another 18% or so got no clear call; they are omitted. Cut-off read from the data, not from the text of the source: active = normalized growth mostly below about 0.91 (no sharp cut-off); inconclusive = no clear call, values can overlap the other calls; inactive = mostly above about 0.92. This is one part of the list.
Allowed answers: Y = active, N = inactive

// known answers, use as guide
{"columns": ["molecule", "discrete.label"],
 "data": [
  ["COc1ccc2c(=O)c(CC(=O)O)coc2c1", "N"],
  ["CSCCC(NC=O)C(=O)NC(CC(C)C)C(=O)NC(Cc1ccccc1)C(=O)O (configuration not stated)", "N"],
  ["CCS(=O)(=O)CCn1c([N+](=O)[O-])cnc1C", "N"],
  ["CN1CCN(C(c2ccccc2)c2ccccc2)CC1", "N"],
  ["O=C1c2ccccc2C(=O)c2c(O)c(O)cc(O)c21", "Y"],
  ["Cc1cc(O)c2c(c1O)C(=O)c1c(O)cc(C)c(O)c1C2=O", "N"]
]}

Problem: Kindly provide the recorded test outcome for the following molecule: CC(C(=O)O)c1ccc(N2Cc3ccccc3C2=O)cc1 (configuration not stated)
Result: N

Problem: Kindly provide the recorded test outcome for the following molecule: `O=C1c2ccccc2-c2cccc3cccc1c23`
Result: N

Problem: Kindly provide the recorded test outcome for the following molecule: `COc1ccc(Cc2nccc3cc(OC)c(OC)cc23)cc1OC`
Result: N

Problem: Kindly provide the recorded test outcome for the following molecule: CCOc1nc2cccc(C(=O)OC(C)OC(=O)OC3CCCCC3)c2n1Cc1ccc(-c2ccccc2-c2nn[nH]n2)cc1 (configuration not stated)
Result: N

Problem: Kindly provide the recorded test outcome for the following molecule: `NCCS`
Result: N

Problem: Kindly provide the recorded test outcome for the following molecule: `Fc1ccc(C(c2ccc(F)cc2)N2CCN(C/C=C/c3ccccc3)CC2)cc1`
Result: Y

====

experiment: chemical genetic growth profiling, strain panel (AID 1159580)
experimental.conditions: S. cerevisiae deletion strains, growth OD, locus YDR334W, strain swr1, hits give low values
The whole screen tested about 5,500 compounds, of which about 2,000 (36%) were called active. Not shown: some 18% with an inconclusive outcome. Some of the results follow.
Assign normalized growth to each entry below.
One number for each entry.

{"columns": ["compound", "normalized growth"],
 "data": [
  ["CCNc1nc(Cl)nc(NC(C)C)n1", 0.999],
  ["COC(=O)C[C@H]1C(C)(C)[C@@H](OC(C)=O)[C@@H]2CC3C4CC(=O)O[C@@H](c5ccoc5)[C@]4(C)CCC3[C@@]1(C)C2=O (stereo partly specified)", 1.01]
]}

Working through the 3 compounds below one at a time, give normalized growth for each.
1. CCOc1ccc(Cc2nccc3cc(OCC)c(OCC)cc23)cc1OCC
2. COc1ccc(Cc2nccc3cc(OC)c(OC)cc23)cc1OC
3. CCCCC(=O)O[C@H]1CCC2C3CCc4cc(O)ccc4C3CC[C@@]21C (stereo partly specified)

Result:
1. 0.974
2. 1.01
3. 1.02

Problem: Which normalized growth is listed for `Fc1ccc(C(c2ccc(F)cc2)N2CCN(C/C=C/c3ccccc3)CC2)cc1` ?
Result: 0.208

====

experiment: chemical genetic growth profiling, strain panel (AID 1159580);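 also: tested at 20 µM; growth read once vehicle control cultures reached saturation at 30 °C; 1 = growth at the plate median or of vehicle wells; lower values mean less growth of the strain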
experimental.conditions: S. cerevisiae deletion strains, growth OD, locus YOR080W, strain dia2
In all, about 5,500 compounds went through this assay and about 2,000 (36%) were called active. Another 18% or so got no clear call; they are omitted. Cut-off read from the data, not from the text of the source: active = normalized growth mostly below about 0.91 (no sharp cut-off); inconclusive = no clear call, values can overlap the other calls; inactive = mostly above about 0.92. The list shows a part of the results.
Allowed answers: true for active, false for inactive

{"columns": ["compound", "discrete.label"],
 "data": [
  ["CN1CCN(C(c2ccccc2)c2ccccc2)CC1", "false"],
  ["CC(C)=CCOc1cc2oc(=O)ccc2cc1O", "false"],
  ["CC(C)=CCOc1c2occc2cc2ccc(=O)oc12", "false"],
  ["CCCc1nc(C(C)(C)O)c(C(=O)OCc2oc(=O)oc2C)n1Cc1ccc(-c2ccccc2-c2nn[nH]n2)cc1", "false"],
  ["CCOC(=O)C1=C(C)NC(C)=C(C(=O)OC)C1c1cccc([N+](=O)[O-])c1 (configuration not stated)", "false"],
  ["CCCCC(=O)N(Cc1ccc(-c2ccccc2-c2nn[nH]n2)cc1)[C@H](C(=O)O)C(C)C", "false"],
  ["NCCS", "false"],
  ["c1ccc2c(c1)[nH]c1cnccc12", "false"],
  ["CC1(C)C=Cc2c(cc3occ(-c4ccc5c(c4)OCO5)c(=O)c3c2O)O1", "false"],
  ["COc1c2c(cc3occ(-c4ccc5c(c4)OCO5)c(=O)c13)OC(C)(C)C=C2", "false"]
]}

Problem: Kindly provide the recorded test outcome for the following compound: `COc1cc2c(cc1-c1coc3c4c(c(OC)cc3c1=O)OC(C)(C)C=C4)OCO2`
Result: false

Problem: Kindly provide the recorded test outcome for the following compound: `COC(=O)C1=CO[C@@H](O[C@@H]2O[C@H](CO)[C@@H](O)[C@H](O)[C@H]2O)[C@@H]2[C@@H](C)[C@@H](O)C[C@H]12`
Result: false

Problem: Kindly provide the recorded test outcome for the following compound: `Nc1ncnc2c1ncn2[C@@H]1O[C@H](CO)[C@@H](O)[C@@H]1O`
Result: false

====

experiment: chemical genetic growth profiling, strain panel (AID 1159580);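 also: tested at 20 µM; growth read once vehicle control cultures reached saturation at 30 °C; 1 = growth at the plate median or of vehicle wells; lower values mean less growth of the strain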
experimental.conditions: S. cerevisiae deletion strains, growth OD, locus YIL125W, strain kgd1, hits give low values
The campaign covered roughly 5,500 compounds. About 2,000 (36%) were called active. Inconclusive results (about 18%) are left out. The list shows a part of the results.
assay.readout: normalized growth
Give bare numbers.

{"columns": ["molecule", "normalized growth"],
 "data": [
  ["CC(=O)N[C@@H](CC(=O)O)C(=O)O", 1.01],
  ["CC1=C2CCC3C(CC[C@]4(C)C(=O)CCC34)[C@@]2(C)CCC1=O (stereo partly specified)", 0.971],
  ["O=c1[nH]c2ccccc2n1C1CCN(CCCC(c2ccc(F)cc2)c2ccc(F)cc2)CC1", 0.995]
]}

Working through the 3 molecules below one at a time, give normalized growth for each.
1. O=C(CCCN1CC=C(n2c(=O)[nH]c3ccccc32)CC1)c1ccc(F)cc1
2. CCOc1ccc(Cc2nccc3cc(OCC)c(OCC)cc23)cc1OCC
3. CCS(=O)(=O)CCn1c([N+](=O)[O-])cnc1C

Result:
[0.99, 0.978, 1.01]

====

experiment: chemical genetic growth profiling, strain panel (AID 1159580);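 also: tested at 20 µM; growth read once vehicle control cultures reached saturation at 30 °C; 1 = growth at the plate median or of vehicle wells; lower values mean less growth of the strain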
experimental.conditions: S. cerevisiae deletion strains, growth OD, locus YLR039C, strain RIC1, hits give low values
About 2,000 (36%) of roughly 5,500 compounds were called active. Inconclusive results (about 18%) are left out. The list shows a part of the results.
Assign normalized growth to each entry below.
Give bare numbers.

Sample answers from the record:
{"columns": ["compound", "normalized growth"],
 "data": [
  ["C/C=C(\\C)C(=O)OC1[C@@H]2C=C3C4CC(=O)O[C@@H](c5ccoc5)[C@]4(C)CCC3[C@@](C)(C2=O)[C@@H](C(O)C(=O)OC)C1(C)C (stereo partly specified)", 1],
  ["CC(=O)c1csc([N+](=O)[O-])c1", 1]
]}

Working through the 2 compounds below one at a time, give normalized growth for each.
1. Cn1c(=O)[nH]c(=O)c2[nH]cnc21
2. COc1cc(Cl)c(Cl)cc1Cl

Result:
[0.974, 0.986]

Working through the 4 compounds below one at a time, give normalized growth for each.
1. COc1cc2ccc(=O)oc2c2ccoc12
2. CC(=O)/C(=C\N(C)C)Sc1ccc(Cl)cc1
3. O=C1OC(=O)C2C3CCC(O3)C12 (stereo unspecified)
4. N#CCCNc1cc(C(F)(F)F)cc(C(F)(F)F)c1

Result:
1. 1.09
2. 0.876
3. 1.06
4. 0.848

Working through the 3 compounds below one at a time, give normalized growth for each.
1. CNC(=O)CSP(=S)(OC)OC
2. FC(F)(F)c1cc(NC2=NCCN=C(Nc3cc(C(F)(F)F)cc(C(F)(F)F)c3)SS2)cc(C(F)(F)F)c1
3. C[C@H]1C(=O)O[C@@H]2CCN3CC=C(COC(=O)[C@](C)(O)[C@]1(C)O)[C@H]23

Result:
1. 0.993
2. 0.977
3. 0.989
